# Test: Cytotoxicity assay (Calcein-AM uptake)
# Format: cell-based
# Condition Set: human, T-cell lymphoblasts (PHA-expanded PBMC), overnight incubation, Calcein-AM viability
Measurement Type: CC50 (µM)

| Compound | Measurement Type | Censoring Qualifier | Value |
| --- | --- | --- | --- |
| O=C1C=C(c2cc(Cl)cc(Cl)c2)c2ccccc2C1=O [Example 13] | CC50 | = | 5.5 |
| O=C1C=C(c2ccccc2)c2ccccc2C1=O [Example 11, 4-Phenyl-[1,2]naphthoquinone] | CC50 | = | 12 |
| O=C1C=Cc2ccccc2C1=O [Example 1, [1,2]-Naphthoquinone] | CC50 | > | 30 |

src = patent US6939896B2
